# Tested on: NCI-H23
# METHOD: Cytotoxicity against human NCI-H23 cells by SRB assay
# Format: functional, cell-based
pIC50: −log10 of the molar value.

{"CHEMICAL_SMILES": "CC(=O)O[C@H]1CC[C@@H](C)[C@]23OC(C)(C)[C@H](C[C@H](OC(=O)c4ccccc4)[C@]12C)[C@H]3OC(=O)c1ccccc1", "pIC50": 4.77}
{"CHEMICAL_SMILES": "CC(=O)O[C@H]1C[C@@H](C)[C@]23OC(C)(C)[C@H](C[C@H](OC(=O)c4ccccc4)[C@]2(C)[C@H]1OC(C)=O)[C@H]3OC(=O)c1ccccc1", "pIC50": 4.38}

Cited source: ChEMBL document CHEMBL1158852
